Biological target: human M4 muscarinic acetylcholine receptor (Homo sapiens, UniProt P08173)
Experiment: human FLIPR-based M4 PAM assay (Ca2+ mobilization, CHO-K1 cells with human M4 receptor and Gαqi5)
Settings: acetylcholine at 20% of maximum response, read-out: M4 PAM IP
Response field label: string, one of class 1 (EC50 strictly below 100 nM) or class 0.

| COMPOUND | LABEL |
| --- | --- |
| COCCN1Cc2nc(N3CCC(Oc4ccc5c(c4)COC5)CC3)c(C)c(C)c2C1=O [Example 260A] | class 1 |
| COc1ccc(OC2CCN(c3nc4c(cc3CO)C(=O)NC4)CC2)cn1 [Example 301] | class 0 |
| Cc1cc2c(nc1N1CCC(OCC3(F)CCCC3)CC1)CNC2=O [Example 180] | class 0 |
| COc1ccc(OC2CCN(c3nc4c(cc3C)C(=O)N(C(=O)OC(C)(C)C)C4)CC2)cn1 [Example 299] | class 0 |
| CCc1cc2c(nc1N1CCC(Oc3ccc4c(c3)CCOC4)CC1)CNC2=O [Example 200A] | class 1 |
| O=C1NCc2nc(N3CCC(Oc4ccc5c(c4)COC5)CC3)c(Br)cc21 [Example 226] | class 0 |
| Cc1cc2c(nc1N1CCC(Oc3ccc4c(c3)OCC(=O)N4)CC1)CNC2=O [Example 133] | class 0 |
| Cc1cc2c(nc1N1CCC(Oc3ccc4c(c3)C(=O)N(C3CC3)C4)CC1)CNC2=O [Example 10] | class 0 |
| Cc1cc2c(nc1N1CCC(OCC(C)C(F)(F)F)CC1)CNC2=O (centres unmarked) [Example 188] | class 0 |
| Cc1cc2c(nc1N1CCC(Oc3cnc4c(c3)COC4)CC1)[C@H](CO)N(C)C2=O [Example 277A] | class 0 |
| Cc1c(N2CCC(Oc3ccc4c(c3)CCOC4)CC2)nc2c(c1C)C(=O)N(CCO)C2 [Example 265F] | class 1 |
| COc1ccc(OC2CCN(c3nc4c(cc3C)C(=O)N(C)[C@@]4(C)CO)CC2)cn1 (single isomer, unassigned) [Example 287A] | class 0 |
| CO[C@H]1Cc2ccc(OC3CCN(c4nc5c(c(C)c4C)C(=O)NC5)CC3)cc2C1 [Example 335B] | class 0 |
| Cc1c(N2CCC(Oc3ccc4c(c3)C[C@H](O)C4)CC2)nc2c(c1C)C(=O)N(CCO)C2 [Example 264D] | class 1 |
| Cc1cc2c(nc1N1CC[C@@H](Oc3cccc(C#N)c3)[C@H](F)C1)CNC2=O [Example 21] | class 1 |
| Cc1cc2c(nc1N1CCC(OCC3(O)CC3)CC1)CNC2=O [Example 312B] | class 0 |
| COc1ccc(O[C@@H]2CCN(c3nc4c(cc3C)C(=O)NC4)C[C@@H]2F)cn1 [Example 164] | class 1 |

====

# key: entry, value: EC50
Target: human M4 muscarinic acetylcholine receptor (Homo sapiens, UniProt P08173)
Sequence (P08173 1-479): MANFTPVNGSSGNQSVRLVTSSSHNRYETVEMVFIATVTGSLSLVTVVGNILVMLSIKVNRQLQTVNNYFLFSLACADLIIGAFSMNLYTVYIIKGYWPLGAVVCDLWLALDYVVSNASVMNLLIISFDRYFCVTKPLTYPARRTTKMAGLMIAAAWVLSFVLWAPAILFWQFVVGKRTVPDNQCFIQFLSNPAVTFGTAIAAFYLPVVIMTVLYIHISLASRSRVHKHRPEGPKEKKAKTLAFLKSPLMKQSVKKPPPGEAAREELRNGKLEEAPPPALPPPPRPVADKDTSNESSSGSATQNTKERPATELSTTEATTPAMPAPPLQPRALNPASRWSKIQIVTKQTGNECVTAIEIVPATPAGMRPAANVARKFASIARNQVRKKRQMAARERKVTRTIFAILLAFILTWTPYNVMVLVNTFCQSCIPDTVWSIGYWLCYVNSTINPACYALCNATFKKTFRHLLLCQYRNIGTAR
Test: human FLIPR-based M4 PAM assay (Ca2+ mobilization, CHO-K1 cells with human M4 receptor and Gαqi5)
Details: acetylcholine at 20% of maximum response, read-out: M4 PAM IP
READOUT LABEL: EC50

| COMPOUND | READOUT VALUE |
| --- | --- |
| CCc1cc2c(nc1N1CCC(Oc3ccc4c(c3)OCC4)CC1)CNC2=O [Example 198A] | 110 nM |
| Cc1cc2c(nc1N1CCC(Oc3ccccc3)C(F)(F)C1)CNC2=O (single isomer, unassigned) [Example 158B] | 17 nM |
| Cc1cc2c(nc1N1CC[C@@H](Oc3ccccc3)[C@@H](F)C1)CNC2=O [Example 35] | 24 nM |
| Cc1c(N2CCC(Oc3ccc4c(c3)OCC4)CC2)nc2c(c1C)C(=O)N(CCO)C2 [Example 266A] | 44 nM |
| Cc1cc2c(nc1N1CCC(Oc3ccc4c(c3)CO[C@H]4C)CC1)CNC2=O [Example 199B] | 72 nM |
| COc1ccc(OC2CCN(c3nc4c(cc3CF)C(=O)NC4)CC2)cn1 [Example 304] | 1120 nM |
| COc1ccc(O[C@H]2CCN(c3nc4c(cc3C)C(=O)NC4)C[C@@H]2C)cn1 (single isomer, unassigned) [Example 2B] | 734 nM |
| Cc1cc2c(nc1N1CCC(OCC3(C)CC3C#N)CC1)CNC2=O (single isomer, unassigned) [Example 193B] | 875 nM |
| COc1ccc(OC2CCN(c3nc4c(cc3C)C(=O)N[C@H]4CO)CC2)cn1 (single isomer, unassigned) [Example 271A] | 941 nM |
| Cc1cc2c(nc1N1CCC(Oc3ccc4c(ccn4C)c3)CC1)CNC2=O [Example 27] | 43 nM |
| Cc1c(N2CC[C@H](OCC3(C)CC3)[C@@H](F)C2)nc2c(c1C)C(=O)NC2 [Example 219A] | 46 nM |
| Cc1cc2c(nc1N1CCC(Oc3ccc(F)c(F)c3)CC1)CNC2=O [Example 81] | 37 nM |
| Cc1cc2c(nc1N1CCC(OCc3ccncc3)CC1)CNC2=O [Example 175A] | 3100 nM |
| Cc1cc2c(nc1N1CCC(OCC3(C)CCCC3)CC1)CNC2=O [Example 178] | 2480 nM |
| Cc1cc2c(nc1N1CCC(Oc3ccc4c(c3)CNCC4)CC1)CNC2=O [Example 146] | 286 nM |
| COCCOCc1ccc(OC2CCN(c3nc4c(cc3C)C(=O)NC4)CC2)cn1 [Example 204] | 1110 nM |
| Cc1cc2c(nc1N1CCC(Oc3ccc4c(c3)COC4)CC1)CN(CC(C)O)C2=O (single isomer, unassigned) [Example 238A] | 87 nM |
| Cc1cc2c(nc1N1CCC(Oc3cnn(C)c3)CC1)[C@H](CO)N(C)C2=O [Example 358] | 8070 nM |
| Cc1cc2c(nc1N1CCC(Oc3ccccc3)CC1)CNC2=O [Example 5] | 21 nM |
| CCc1cc2c(nc1N1CCC(Oc3ccccc3)CC1)CNC2=O [Example 202] | 148 nM |
| COc1ccc(O[C@@H]2CCN(c3nc4c(cc3C)C(=O)N(C)[C@@H]4CO)C[C@H]2F)cn1 [Example 282A] | 38 nM |
| Cc1c(N2CC[C@@H](Oc3ccc4c(cnn4C)c3)[C@@H](F)C2)nc2c(c1C)C(=O)N(CCO)C2 [Example 268E] | 68 nM |
| COc1ccc(OC2CCN(c3nc4c(cc3C)C(=O)N(C)[C@H]4C(C)(C)O)CC2)cn1 [Example 323A] | 261 nM |
| Cc1c(N2CCC(Oc3ccc4c(c3)C[C@@H](O)C4)CC2)nc2c(c1C)C(=O)NC2 [Example 334B] | 38 nM |
| Cc1c(N2CCC(Oc3cccc(C#N)c3)CC2)nc2c(c1C)C(=O)NC2 [Example 94A] | 193 nM |
| Cc1cc2c(nc1N1CCC(OC[C@@]3(C)CC3(F)F)CC1)CNC2=O [Example 8A] | 87 nM |
| CCc1cc2c(nc1N1CCC(Oc3ccc4c(c3)COC4)CC1)CN(CCO)C2=O [Example 258] | 126 nM |
| Cc1cc2c(nc1N1CCC(Oc3ccccc3)CC1)[C@@H](CO)N(C)C2=O [Example 276] | 145 nM |
| COc1ccc(OC2CCN(c3nc4c(c(C)c3C)C(=O)NC4)CC2)cn1 [Example 218] | 38 nM |
| Cc1cc2c(nc1N1CCC(Oc3ccc(C(F)(F)F)nc3)CC1)CNC2=O [Example 88] | 381 nM |
| Cc1cc2c(nc1N1CCC(Oc3cccc(F)c3)CC1)CNC2=O [Example 71] | 42 nM |
| Cc1cc2c(nc1N1CCC(Oc3ccc4c(c3)COC4)CC1)[C@@H](CO)N(C)C2=O [Example 281] | 23 nM |
| Cc1cc2c(nc1N1CCC(Oc3cccc(C#N)c3)CC1)CN(CCN(C)C)C2=O [Example 236] | 317 nM |
